Biological target: PTP1B (Homo sapiens)
Construct: purchased Abcam, Cambridge, UK
Sequence (P18031 whole entry): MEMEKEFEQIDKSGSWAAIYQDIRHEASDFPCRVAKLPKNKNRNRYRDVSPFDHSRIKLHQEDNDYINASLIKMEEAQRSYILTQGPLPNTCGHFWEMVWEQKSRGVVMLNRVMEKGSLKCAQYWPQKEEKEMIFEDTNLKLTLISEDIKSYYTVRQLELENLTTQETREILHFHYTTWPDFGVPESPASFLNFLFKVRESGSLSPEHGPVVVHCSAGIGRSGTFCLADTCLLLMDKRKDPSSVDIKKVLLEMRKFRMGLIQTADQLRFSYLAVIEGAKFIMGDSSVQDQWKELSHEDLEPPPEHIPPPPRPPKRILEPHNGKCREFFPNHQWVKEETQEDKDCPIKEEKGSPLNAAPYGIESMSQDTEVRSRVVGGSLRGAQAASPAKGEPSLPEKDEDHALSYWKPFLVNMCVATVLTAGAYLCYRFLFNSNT
Experiment: PTP1B inhibition assay (pNPP substrate)
Type: biochemical
Conditions: human recombinant PTP1B, 37 °C, 30 min, triplicate, means ± SD, read-out: PTP1B inhibitory activity IC50
Friendly reminder: IC50 below 20 µM is true, at or above is false.

Previously resolved entries follow.
C=C1CCC2(C(=O)O)CCC3(C)C(=CCC4C5(C)CC(O)C(OC(=O)C=Cc6ccc(O)c(OC)c6)C(C)(C)C5CCC43C)C2C1C (centres unmarked)    false
C[C@H]1[C@H](C)CC[C@]2(C(=O)O)CC[C@]3(C)C(=CC[C@@H]4[C@@]5(C)C[C@@H](O)[C@H](OC(=O)/C=C/c6ccc(O)cc6)C(C)(C)[C@@H]5CC[C@]43C)[C@H]12    false
C[C@H]1[C@H](C)CC[C@]2(C(=O)O)CC[C@]3(C)C(=CC[C@@H]4[C@@]5(C)C[C@@H](O)[C@H](OC(=O)/C=C\c6ccc(O)cc6)C(C)(C)[C@@H]5CC[C@]43C)[C@H]12    true
COc1cc(/C=C\C(=O)O[C@H]2[C@H](O)C[C@]3(C)[C@H]4CC=C5[C@@H]6[C@@H](C)[C@H](C)CC[C@]6(C(=O)O)CC[C@@]5(C)[C@]4(C)CC[C@H]3C2(C)C)ccc1O    true

With those in mind, consider the next compound.
Input: I wonder whether C=C1CCC2(C(=O)O)CCC3(C)C(=CCC4C5(C)CC(O)C(OC(=O)C=Cc6ccc(O)cc6)C(C)(C)C5CCC43C)C2C1C (centres unmarked) has IC50 below 20 µM. Can you tell?
Output: false

All figures here come from paper PMC11013491.
